# target: HDAC6 (Homo sapiens)
# Sequence (Q9UBN7 whole entry): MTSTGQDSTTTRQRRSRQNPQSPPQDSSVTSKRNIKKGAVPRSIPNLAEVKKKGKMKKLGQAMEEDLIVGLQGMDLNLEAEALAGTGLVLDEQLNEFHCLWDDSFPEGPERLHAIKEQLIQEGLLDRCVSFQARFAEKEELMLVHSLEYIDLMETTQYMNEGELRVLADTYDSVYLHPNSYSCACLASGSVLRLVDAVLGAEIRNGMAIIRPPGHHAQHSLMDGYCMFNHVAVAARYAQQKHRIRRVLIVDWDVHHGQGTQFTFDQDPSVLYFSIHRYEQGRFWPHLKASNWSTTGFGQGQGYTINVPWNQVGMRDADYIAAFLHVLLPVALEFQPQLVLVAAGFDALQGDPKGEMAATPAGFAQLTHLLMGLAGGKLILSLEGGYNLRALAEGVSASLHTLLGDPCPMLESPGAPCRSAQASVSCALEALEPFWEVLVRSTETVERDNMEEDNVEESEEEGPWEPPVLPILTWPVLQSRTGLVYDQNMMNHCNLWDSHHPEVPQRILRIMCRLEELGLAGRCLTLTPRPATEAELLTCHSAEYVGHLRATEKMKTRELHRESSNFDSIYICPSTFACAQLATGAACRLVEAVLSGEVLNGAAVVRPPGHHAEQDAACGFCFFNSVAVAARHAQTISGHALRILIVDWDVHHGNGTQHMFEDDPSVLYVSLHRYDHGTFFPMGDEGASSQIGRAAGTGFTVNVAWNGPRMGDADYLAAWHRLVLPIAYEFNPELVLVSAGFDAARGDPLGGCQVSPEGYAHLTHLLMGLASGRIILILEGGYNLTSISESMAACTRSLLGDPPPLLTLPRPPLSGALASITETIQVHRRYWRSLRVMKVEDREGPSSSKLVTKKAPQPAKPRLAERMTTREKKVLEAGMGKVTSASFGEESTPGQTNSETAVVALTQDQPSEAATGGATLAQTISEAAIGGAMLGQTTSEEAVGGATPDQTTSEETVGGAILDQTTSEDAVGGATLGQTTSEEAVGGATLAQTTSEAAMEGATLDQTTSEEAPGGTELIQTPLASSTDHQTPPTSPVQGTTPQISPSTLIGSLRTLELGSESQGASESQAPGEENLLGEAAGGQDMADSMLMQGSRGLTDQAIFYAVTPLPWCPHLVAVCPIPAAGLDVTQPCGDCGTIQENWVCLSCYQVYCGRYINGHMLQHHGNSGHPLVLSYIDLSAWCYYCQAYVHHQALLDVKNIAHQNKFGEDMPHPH
assayMetric: IC50

q: Please indicate recorded IC50 of CCCC(CCC)C(=O)Nc1ccccc1O [HO-AAVPA, N-(2′-hydroxyphenyl)-2-propylpentanamide] measured with HDAC6 (Homo sapiens).
a: > 1000 µM

* * *

# System: SiHa cells
# protocolDetails: Cell viability by MTT assay
# Type: cell-based, human
# testSettings: Homo sapiens, SiHa; 48 h, MTT
assayMetric: IC50 (µM)
Give the quantity in µM, number only.

q: Please give measured IC50 of the following entry: CCCC(CCC)C(=O)Nc1ccccc1O [HO-AAVPA, N-(2′-hydroxyphenyl)-2-propylpentanamide]
a: 1600

* * *

# protocolDetails: Cell viability by MTT assay
# Format: cell-based, human
# testSettings: human, SiHa cells, at 2.5 mM
assayMetric: viability at 48 h, 2.5 mM

q: Please give measured viability at 48 h, 2.5 mM of the following entry: CCCC(CCC)C(=O)Nc1ccccc1O [HO-AAVPA, N-(2′-hydroxyphenyl)-2-propylpentanamide]
a: ~25%

* * *

Target protein (sequence): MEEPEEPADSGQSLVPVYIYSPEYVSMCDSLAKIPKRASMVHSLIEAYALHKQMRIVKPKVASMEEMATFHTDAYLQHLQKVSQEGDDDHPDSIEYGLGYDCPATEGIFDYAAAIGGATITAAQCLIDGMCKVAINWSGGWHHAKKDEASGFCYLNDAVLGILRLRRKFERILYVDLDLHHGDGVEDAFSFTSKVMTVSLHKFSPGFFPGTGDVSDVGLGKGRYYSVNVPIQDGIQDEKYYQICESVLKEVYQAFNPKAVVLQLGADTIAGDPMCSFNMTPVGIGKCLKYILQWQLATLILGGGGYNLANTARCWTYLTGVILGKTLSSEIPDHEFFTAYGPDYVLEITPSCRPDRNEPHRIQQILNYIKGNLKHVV
assayMetric: IC50

q: Please give measured IC50 of the following entry: CCCC(CCC)C(=O)Nc1ccccc1O [HO-AAVPA, N-(2′-hydroxyphenyl)-2-propylpentanamide]
a: > 1000 µM

Source of measurements: paper PMC7461584
